system: biotinyl-Met-oxazolone; assay: self-aminoacylation, catalytic enhancement (BMO) (fold over background); higher = more active; k-Seq, kA / k0A0; sequences stand for … in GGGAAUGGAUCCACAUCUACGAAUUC…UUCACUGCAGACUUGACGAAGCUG
Variants at the floor of the assay were thinned out.
// class assignment uses self-aminoacylation with these ranges: one = under 0.9, two = from 0.9 up to 4, three = 4 and over

These solved cases illustrate the format of a correct answer.
| Chain | Assigned Class |
| --- | --- |
| AAGUUUGCGAAAAGUCGCAAG [Fam3.1 aminoacylation ribozyme variant] | two |
| AUUCCCCUGGUCACCGAGUGA [Fam2.1 aminoacylation ribozyme variant] | three |
| ACUACCGUGGUCAUCGAGUGA [Fam2.1 aminoacylation ribozyme variant] | three |

Query: State the class of the sequence shown: CGACACUUCAAGUAAUCGGUC [Fam1B.1 aminoacylation ribozyme variant]
Response: two

Query: State the class of the sequence shown: AAGUUUGCUAACAAUCGCAAG [Fam3.1 aminoacylation ribozyme variant]
Response: one

Query: State the class of the sequence shown: CUACUCCAAACAAUCGGUCUU [Fam1A.1 aminoacylation ribozyme variant]
Response: one

Query: State the class of the sequence shown: AAGUUUGCUAACAGUCGCAAA [Fam3.1 aminoacylation ribozyme variant]
Response: two

###

tested on: biotinyl-Leu-oxazolone; assay: self-aminoacylation, catalytic enhancement (BLO) (fold over background); higher = more active; k-Seq, kA / k0A0; sequences stand for … in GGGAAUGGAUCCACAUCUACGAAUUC…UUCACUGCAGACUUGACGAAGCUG
Fewer inactive variants are shown than the library holds.
Readout: self-aminoacylation
Please reply with the number alone, leaving off any unit.

Study these solved cases before continuing.
| Chain | Readout | Readout Value |
| --- | --- | --- |
| CUGCUUGAAACAAUCGGUCUG [Fam1A.1 aminoacylation ribozyme variant] | self-aminoacylation | 0.867 |
| AUUACCCCGGUCAUCUAGUGA [Fam2.1 aminoacylation ribozyme variant] | self-aminoacylation | 8.24 |
| AUUCAGUUAGGUCAUCGGGUG [Fam2.2 aminoacylation ribozyme variant] | self-aminoacylation | 4.86 |
| AAGUUUGCUAAUAGUCGCCAG [Fam3.1 aminoacylation ribozyme variant] | self-aminoacylation | 0.962 |
| CCACACUUCUAGCAAUCAGUC [Fam1B.1 aminoacylation ribozyme variant] | self-aminoacylation | 0.622 |

Query: Specify reported self-aminoacylation for the sequence shown: AUUCACCUAGGUUAUCGAGUG [Fam2.2 aminoacylation ribozyme variant]
Response: 2.35

Query: Specify reported self-aminoacylation for the sequence shown: AUUACCUUGGUCAUCGUGUGA [Fam2.1 aminoacylation ribozyme variant]
Response: 2.71

Query: Specify reported self-aminoacylation for the sequence shown: AAGUUUUCGAAUAGUCGCAAG [Fam3.1 aminoacylation ribozyme variant]
Response: 1.86

Query: Specify reported self-aminoacylation for the sequence shown: AAGUUUGCUAACAGUCGCAAA [Fam3.1 aminoacylation ribozyme variant]
Response: 1.23

###

tested on: biotinyl-Val-oxazolone; experiment: self-aminoacylation, catalytic enhancement (BVO) (fold over background); higher = more active; k-Seq, kA / k0A0; sequences stand for … in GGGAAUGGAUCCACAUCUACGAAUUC…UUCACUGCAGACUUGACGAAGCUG
Fewer inactive variants are shown than the library holds.
Readout: self-aminoacylation
Please reply with the number alone, leaving off any unit.

Study these solved cases before continuing.
| Chain | Assay Target | self-aminoacylation |
| --- | --- | --- |
| CUACUUCAAACAAUCGGUCAA [Fam1A.1 aminoacylation ribozyme variant] | biotinyl-Val-oxazolone | 0.996 |
| CUAGUUCAAACAAUCGGUCUU [Fam1A.1 aminoacylation ribozyme variant] | biotinyl-Val-oxazolone | 1.01 |
| AUUGCCCUAGUCAUCGAGUGA [Fam2.1 aminoacylation ribozyme variant] | biotinyl-Val-oxazolone | 3.21 |

Here's the next entry for you.
Query: Specify reported self-aminoacylation for the sequence shown: AUUCACCAAGGUCUUCGGGUG [Fam2.2 aminoacylation ribozyme variant]
Response: 4.41

Every entry's value here was drawn from the supplement of paper PMC9233669.
